Test system: Staphylococcus epidermidis
assay summary: In vitro antimicrobial activity against Staphylococcus epidermidis EPI1
Assay type: functional
reported endpoint: MIC (µg/mL)
Dear colleague, please return just the value in µg/mL, with no unit written.

input: Supply MIC value. Item: CC[C@H]1OC(=O)C[C@@H](O)[C@H](C)[C@@H](O[C@@H]2O[C@H](C)[C@@H](O)[C@H](N(C)C)[C@H]2O)[C@@H](CCOc2cccnc2)C[C@@H](C)C(=O)/C=C/C(C)=C/[C@@H]1CO[C@@H]1O[C@H](C)[C@@H](O)[C@@H](OC)[C@H]1OC
output: 0.5

input: Supply MIC value. Item: CC[C@H]1OC(=O)C[C@@H](O)[C@H](C)[C@@H](O[C@@H]2O[C@H](C)[C@@H](O[C@H]3C[C@@](C)(O)[C@@H](O)[C@H](C)O3)[C@H](N(C)C)[C@H]2O)[C@@H](CC=O)C[C@@H](C)C(=O)/C=C/C(C)=C/[C@@H]1CO[C@@H]1O[C@H](C)[C@@H](O)[C@@H](OC)[C@H]1OC
output: 1

input: Supply MIC value. Item: CC[C@H]1OC(=O)C[C@@H](O)[C@H](C)[C@@H](O[C@@H]2O[C@H](C)[C@@H](O[C@H]3C[C@@](C)(O)[C@@H](O)[C@H](C)O3)[C@H](N(C)C)[C@H]2O)[C@@H](CCN2CCCCCCC2)C[C@@H](C)C(=O)/C=C/C(C)=C/[C@@H]1CO[C@@H]1O[C@H](C)[C@@H](O)[C@@H](OC)[C@H]1OC
output: 4

input: Supply MIC value. Item: CC[C@H]1OC(=O)C[C@@H](O)[C@H](C)[C@@H](O[C@@H]2O[C@H](C)[C@@H](O)[C@H](N(C)C)[C@H]2O)[C@@H](CCBr)C[C@@H](C)C(=O)/C=C/C(C)=C/[C@@H]1CO[C@@H]1O[C@H](C)[C@@H](O)[C@@H](OC)[C@H]1OC
output: 0.25
